assaySummary: Cytotoxicity against human erythrocytes
Format: toxicity, cell-based, Erythrocyte
Parameter: CC50. Scope: all listed entries.
# output: bare number, implied unit µg/mL

{"structureString": "O=[N+]([O-])c1cccc(Cn2cc(CO)nn2)c1", "unitText": "µg/mL", "CC50": 87.4}

Then this compound:
Ask: What does the data say about its CC50? Entry: "O=[N+]([O-])c1ccccc1Cn1cc(CO)nn1"
Result: 75.5

###

# pEC50 annotations
System: Plasmodium falciparum
assaySummary: Antimalarial activity against Plasmodium falciparum Dd2 infected in A+ human erythrocytes assessed as reduction in parasite growth incubated for 72 hrs by SYBR Green I staining based analysis
Type: functional, organism-based
assayConditions: Dd2, Erythrocyte
Scale: negative log10 of molar concentration, which is what pEC50 denotes.

{"molecule": "Cc1nc(-c2ccccc2)c(-c2ccccc2)c2cc(-c3cn(CCOC(=O)CCC(=O)O[C@@H]4O[C@@H]5O[C@]6(C)O[C@]57[C@@H](CC[C@@H](C)[C@@H]7C[C@H]6O)[C@H]4C)nn3)ccc12", "pEC50": 6.35}
{"molecule": "CCN(CC)CCCC(C)Nc1ccnc2cc(Cl)ccc12 (centres undefined) [CHLOROQUINE]", "pEC50": 6.78}

Ask: I have this molecule here, "C[C@H]1[C@@H](OCCCCc2cn(-c3ccnc4cc(Cl)ccc34)nn2)O[C@@H]2O[C@@]3(C)CC[C@H]4[C@H](C)CC[C@@H]1[C@@]24OO3" , and I need its recorded pEC50.
Result: 8.21

Ask: Which value of pEC50 has been reported for "C[C@H]1[C@@H](OCCCn2cc(-c3ccnc4cc(Cl)ccc34)nn2)O[C@@H]2O[C@@]3(C)CC[C@H]4[C@H](C)CC[C@@H]1[C@@]24OO3" in the records?
Result: 8.28

###

Test system: Plasmodium falciparum
assaySummary: Antimalarial activity against Plasmodium falciparum Dd2 infected in A+ human erythrocytes assessed as reduction in parasite growth incubated for 72 hrs by SYBR Green I staining based analysis
Format: functional, organism-based
assayConditions: Dd2, Erythrocyte
EC50 values, listed per item
Report only the number, with the unit nM understood.

Ask: Which EC50 value is on record for "C[C@H]1[C@H](OC(=O)CCC(=O)OCCCCc2cn(-c3ccnc4cc(Cl)ccc34)nn2)O[C@@H]2O[C@@]3(C)CC[C@H]4[C@H](C)CC[C@@H]1[C@@]24OO3" ?
Result: 4.4

Ask: Quick check: EC50 of "Cc1nc(-c2ccccc2)c(-c2ccccc2)c2cc(-c3cn(CCOC(=O)CCC(=O)O[C@@H]4O[C@@H]5O[C@@]6(C)CC[C@H]7[C@H](C)CC[C@@H]([C@H]4C)[C@@]57OO6)nn3)ccc12" ?
Result: 4.8

Ask: # get_value(readout='EC50', item= "C[C@H]1[C@H](OC(=O)CCC(=O)OCCCc2cn(-c3ccnc4cc(Cl)ccc34)nn2)O[C@@H]2O[C@@]3(C)CC[C@H]4[C@H](C)CC[C@@H]1[C@@]24OO3" )
Result: 4.6

###

Test system: Plasmodium falciparum
assaySummary: Antimalarial activity against Plasmodium falciparum W2 assessed as parasite growth inhibition
Assay type: functional, organism-based
Reported IC50 is given for each of the following compounds.
Provide only the numeric value, understood in µM.

{"structureString": "C=C[C@H]1CN2CC[C@H]1C[C@H]2[C@H](c1ccnc2ccccc12)n1cc(C(C)(C)O)nn1", "testedSystem": "Plasmodium falciparum", "IC50 (µM)": 2.59}
{"structureString": "C=C[C@H]1CN2CC[C@H]1C[C@H]2[C@H](c1ccnc2ccccc12)n1cc(CCC)nn1", "testedSystem": "Plasmodium falciparum", "IC50 (µM)": 1.99}
{"structureString": "C=C[C@H]1CN2CC[C@H]1C[C@H]2[C@H](c1ccnc2ccccc12)n1cc(CO)nn1", "testedSystem": "Plasmodium falciparum", "IC50 (µM)": 6.82}
{"structureString": "C=C[C@H]1CN2CC[C@H]1C[C@H]2[C@H](c1ccnc2ccccc12)n1cc(-c2ccccc2)nn1", "testedSystem": "Plasmodium falciparum", "IC50 (µM)": 4.65}

Ask: // IC50 lookup, key: "C=C[C@H]1CN2CC[C@H]1C[C@H]2[C@H](c1ccnc2ccccc12)n1cc(C(C)(C)N)nn1"
Result: 4.62

###

The reader will find reported CC50 at 72 h values listed item by item below.
assaySummary: Cytotoxicity against African green monkey Vero cells after 72 hrs by MTT assay
Type: toxicity, cell-based
assayConditions: chlorocebus sabaeus
Write the value in µM as a bare number.

// known answers, use as guide
{"molecule": "O=C(Cn1cc(COc2ccc(Br)cc2)nn1)NCCNc1ccnc2cc(Cl)ccc12", "CC50 at 72 h / µM": 28.9}
{"molecule": "O=C(Cn1cc(COc2ccc(Cl)cc2)nn1)NCCNc1ccnc2cc(Cl)ccc12", "CC50 at 72 h / µM": 86.8}
{"molecule": "CCN(CC)CCCC(C)Nc1ccnc2cc(Cl)ccc12 (centres undefined)", "CC50 at 72 h / µM": 112}

We next turn to a different molecule, shown below.
Ask: # input molecule: "O=C(Cn1cc(COc2ccc(Br)cc2)nn1)NCCCNc1ccnc2cc(Cl)ccc12" ; wanted: its CC50 at 72 h
Result: 27.1

###

System: Plasmodium falciparum
assaySummary: Antimalarial activity against CQ-resistant Plasmodium falciparum W2 assessed as parasite growth inhibition by LDH assay
Type: functional, organism-based
Here the recorded pIC50 is given for each entry.
Scale: pIC50 equals -log10([C]), with [C] in mol/L.

Ask: # lookup: pIC50 of "O=C1c2nnn(Cc3cccc(Cl)c3)c2C(=O)c2nnn(Cc3cccc(Cl)c3)c21"
Result: 5.12

Ask: What value of pIC50 has been reported for the following compound? "O=C1c2nnn(Cc3cccc([N+](=O)[O-])c3)c2C(=O)c2nnn(Cc3cccc([N+](=O)[O-])c3)c21"
Result: 5.54

Ask: Tell me the measured pIC50 of "Cc1cccc(Cn2nnc3c2C(=O)c2nnn(Cc4cccc(C)c4)c2C3=O)c1" , please.
Result: 5.18

Ask: Quick check: pIC50 of "O=C1c2nnn(Cc3cccc(F)c3)c2C(=O)c2nnn(Cc3cccc(F)c3)c21" ?
Result: 6.23

###

assaySummary: Cytotoxicity against African green monkey Vero cells
Type: toxicity, cell-based
assayConditions: chlorocebus sabaeus
measurementName: CC50 (µM)
Field: numeric (µM). Do not append units.

{"structureString": "CC1(C)[C@@H](O)CC[C@]2(C)[C@H]3C(=O)C=C4[C@@H]5C[C@@](C)(C(=O)OCc6cn(-c7ccc(O)cc7[N+](=O)[O-])nn6)CC[C@]5(C)CC[C@@]4(C)[C@]3(C)CC[C@@H]12", "CC50 / µM": 253}
{"structureString": "CC1(C)[C@@H](O)CC[C@]2(C)[C@H]3C(=O)C=C4[C@@H]5C[C@@](C)(C(=O)OCc6cn(-c7ccc(Cl)cc7)nn6)CC[C@]5(C)CC[C@@]4(C)[C@]3(C)CC[C@@H]12", "CC50 / µM": 391}

Ask: Consider the molecule shown here: "Cc1ccc(-n2cc(COC(=O)[C@@]3(C)CC[C@]4(C)CC[C@]5(C)C(=CC(=O)[C@@H]6[C@@]7(C)CC[C@H](O)C(C)(C)[C@@H]7CC[C@]65C)[C@@H]4C3)nn2)cc1Cl" What is its recorded CC50?
Result: 377

###

Test system: Plasmodium falciparum
assaySummary: Antiplasmodial activity against Plasmodium falciparum K1 at asexual stage assessed as parasite growth inhibition
Type: functional, organism-based
The following compounds are listed with their measured IC50 values.
Just the number plus its unit, please.

{"compound": "COC(=O)C1=C(Cn2cc(CNc3ccnc4cc(Cl)ccc34)nn2)NC(=O)NC1c1ccc(F)cc1 (centres undefined)", "testedSystem": "Plasmodium falciparum", "result": "551 nM"}
{"compound": "COC(=O)C1=C(Cn2cc(CNc3ccnc4cc(Cl)ccc34)nn2)N(C)C(=O)NC1c1ccc(F)cc1 (centres undefined)", "testedSystem": "Plasmodium falciparum", "result": "498 nM"}
{"compound": "COC(=O)C1=C(Cn2cc(CNc3ccnc4cc(Cl)ccc34)nn2)NC(=O)NC1c1ccc(OC)cc1 (centres undefined)", "testedSystem": "Plasmodium falciparum", "result": "567 nM"}

Ask: Name the recorded IC50 for COC(=O)C1=C(Cn2cc(CNc3ccnc4cc(Cl)ccc34)nn2)N(C)C(=O)NC1c1ccc(OC)cc1 (centres undefined) .
Result: 422 nM

###

Tested on: Plasmodium falciparum
assaySummary: Antimalarial activity against Plasmodium falciparum Dd2 infected in A+ human erythrocytes assessed as reduction in parasite growth incubated for 72 hrs by SYBR Green I staining based analysis
Format: functional, organism-based
assayConditions: Dd2, Erythrocyte
pEC50 overview
// field semantics: pEC50 = negative decimal log of concentration (mol/L)

Look over these answered cases.
{"compound": "CCCCc1nc(C)c2ccc(-c3cn(CCOC(=O)CCC(=O)O[C@@H]4O[C@@H]5O[C@@]6(C)CC[C@H]7[C@H](C)CC[C@@H]([C@H]4C)[C@@]57OO6)nn3)cc2c1CCCC", "pEC50": 8.00}
{"compound": "C[C@H]1[C@@H](OCCc2cn(-c3ccnc4cc(Cl)ccc34)nn2)O[C@@H]2O[C@@]3(C)CC[C@H]4[C@H](C)CC[C@@H]1[C@@]24OO3", "pEC50": 8.35}
{"compound": "C[C@H]1[C@H](OC(=O)CCC(=O)O)O[C@@H]2O[C@@]3(C)CC[C@H]4[C@H](C)CC[C@@H]1[C@@]24OO3 [ARTESUNATE]", "pEC50": 7.96}
{"compound": "C[C@H]1[C@H](OC(=O)CCC(=O)OCCc2cn(-c3ccnc4cc(Cl)ccc34)nn2)O[C@@H]2O[C@@]3(C)CC[C@H]4[C@H](C)CC[C@@H]1[C@@]24OO3", "pEC50": 8.31}

# ---- query compound ----
Ask: What value of measured pEC50 is listed for "C[C@H]1[C@H](OCc2cn(-c3ccnc4cc(Cl)ccc34)nn2)O[C@@H]2O[C@@]3(C)CC[C@H]4[C@H](C)CC[C@@H]1[C@@]24OO3" ?
Result: 7.97
